Just for reference, patent US5773239A is where these values come from.

// IC50 lookup, one value per entry
- Experimental Target: UniProt:P28494
- Sequence (P28494 1-1148): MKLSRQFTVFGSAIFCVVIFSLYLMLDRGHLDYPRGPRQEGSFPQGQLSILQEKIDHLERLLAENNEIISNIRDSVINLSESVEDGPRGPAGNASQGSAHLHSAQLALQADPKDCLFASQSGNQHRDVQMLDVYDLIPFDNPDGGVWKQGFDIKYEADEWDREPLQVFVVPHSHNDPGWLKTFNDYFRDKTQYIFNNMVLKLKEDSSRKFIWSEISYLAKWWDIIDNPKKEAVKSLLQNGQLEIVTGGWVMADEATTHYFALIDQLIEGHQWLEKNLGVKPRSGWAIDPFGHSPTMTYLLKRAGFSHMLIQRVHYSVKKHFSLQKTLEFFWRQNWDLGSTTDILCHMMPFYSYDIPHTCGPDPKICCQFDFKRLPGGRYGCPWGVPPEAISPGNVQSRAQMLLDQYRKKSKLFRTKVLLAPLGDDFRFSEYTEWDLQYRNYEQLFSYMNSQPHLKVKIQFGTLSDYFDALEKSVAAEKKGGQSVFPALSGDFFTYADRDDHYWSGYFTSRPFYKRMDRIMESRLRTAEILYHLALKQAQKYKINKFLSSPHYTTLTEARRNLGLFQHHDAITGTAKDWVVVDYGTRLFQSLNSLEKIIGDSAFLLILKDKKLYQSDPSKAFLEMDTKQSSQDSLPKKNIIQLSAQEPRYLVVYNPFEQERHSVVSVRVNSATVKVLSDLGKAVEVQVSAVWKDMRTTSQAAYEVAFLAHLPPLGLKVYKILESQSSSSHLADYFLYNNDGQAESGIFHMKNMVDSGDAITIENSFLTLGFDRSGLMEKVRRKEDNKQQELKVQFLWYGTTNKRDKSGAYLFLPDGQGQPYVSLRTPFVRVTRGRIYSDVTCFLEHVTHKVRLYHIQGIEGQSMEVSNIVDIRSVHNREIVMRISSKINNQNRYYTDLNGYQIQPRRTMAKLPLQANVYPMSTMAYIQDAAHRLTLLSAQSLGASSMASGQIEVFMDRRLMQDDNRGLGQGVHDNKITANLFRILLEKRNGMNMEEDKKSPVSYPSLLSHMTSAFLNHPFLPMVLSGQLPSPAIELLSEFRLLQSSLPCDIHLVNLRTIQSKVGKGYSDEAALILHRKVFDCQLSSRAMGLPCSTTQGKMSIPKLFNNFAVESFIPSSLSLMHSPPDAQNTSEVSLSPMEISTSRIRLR

Molecule | Measured Quantity | Observed
OC[C@@H]1[C@H](O)[C@H](O)CN1Cc1ccccc1 [GD002] | IC50 | 19 µM
CCN1C[C@@H](O)[C@@H](O)[C@H]1CO [GD005, N-ethyl-DIL] | IC50 | 33.9 µM
O[C@H]1[C@H]2[C@H](O)CCCN2C[C@H]1O [SW, Swainsonine, reference compound] | IC50 | 0.1 µM

Check the records and state IC50 for CC(O)C1[C@H](O)[C@H](O)CN1CC1CC1 (stereo partly drawn) [GD013]
114 µM

Check the records and state IC50 for OC[C@@H]1[C@H](O)[C@H](O)CN1CC1CC1 [GD008, N-cyclo-propyl-methyl-DIL]
8.3 µM

Check the records and state IC50 for CCCN1C[C@@H](O)[C@@H](O)[C@H]1CO [GD006, N-propyl-DIL]
22.1 µM
